target: Rec. human COMT (Homo sapiens); test: COMT-Fluorescence Assay; assay type: biochemical; conditions: COMT-fluorescence assay, rec. human COMT 25 nM, 4-Nitrocatechol-Alexa488 200 nM, SAM 500 nM; read-out: IC50
pIC50: −log10 of the molar value. Where a name gives a salt, the structure may show the parent alone.
reported.metric: pIC50

compound: COc1ccc(C(C)(C)C)cc1-c1cc(O)c2nc[nH]c(=O)c2c1
reported.metric: pIC50
reported.result: 5.89
--
compound: Cc1ccc(-c2cc(O)c3nc[nH]c(=O)c3c2)c(C)n1
reported.metric: pIC50
reported.result: 7.70
--
compound: O=c1[nH]cnc2c(O)cc(-c3cscn3)cc12
reported.metric: pIC50
reported.result: 7.00
--
compound: O=c1[nH]cnc2c(O)cc(Br)cc12 [Example 126, 6-Bromo-8-hydroxyquinazolin-4(3H)-one]
reported.metric: pIC50
reported.result: 6.85
--
compound: O=c1[nH]cnc2c(O)cc(-c3cnc4ccccn34)cc12
reported.metric: pIC50
reported.result: 7.52
--
compound: CS(=O)(=O)c1ccc(-c2c(-c3ccc(F)cc3)cc(O)c3nc[nH]c(=O)c23)cc1
reported.metric: pIC50
reported.result: 8.00
--
compound: O=C(c1ccncc1)c1cc(O)c2nc[nH]c(=O)c2c1
reported.metric: pIC50
reported.result: 6.80
--
compound: Nc1c(-c2ccc(F)cc2)cc(O)c2nc[nH]c(=O)c12 [Example 253, hydrobromide]
reported.metric: pIC50
reported.result: 7.00
--
compound: O=c1[nH]cnc2c(O)cc(-c3ccccc3COCCN3CCCC3)cc12 [Example 238]
reported.metric: pIC50
reported.result: 7.52
--
compound: O=c1[nH]cnc2c(O)cc(-c3ccccc3OCc3ccccc3)cc12
reported.metric: pIC50
reported.result: 7.30
--
compound: CS(=O)(=O)c1ccc(Cl)c(-c2cc(O)c3nc[nH]c(=O)c3c2)c1
reported.metric: pIC50
reported.result: 7.30
--
compound: O=c1[nH]cnc2c(O)cc(-c3ccc4c(c3)CCNC4)cc12
reported.metric: pIC50
reported.result: 7.10
--
compound: O=c1[nH]cnc2c(O)cc(-c3ccccc3CCCCN3CCCC3)cc12
reported.metric: pIC50
reported.result: 7.00
--
compound: Cc1ccc(O)c2nc[nH]c(=O)c12 [Example 140, 8-Hydroxy-5-methylquinazolin-4(3H)-one]
reported.metric: pIC50
reported.result: 5.30
--
compound: COc1cccc(Cc2cc(O)c3nc[nH]c(=O)c3c2)c1
reported.metric: pIC50
reported.result: 5.92
--
compound: COCc1nc(C)sc1-c1cc(O)c2nc[nH]c(=O)c2c1
reported.metric: pIC50
reported.result: 8.00
--
compound: O=c1[nH]cnc2c(O)cc(-c3cncnc3)cc12 [Example 153, 2,2,2-trifluoroacetate]
reported.metric: pIC50
reported.result: 6.72
--
compound: COCCn1nccc1-c1cc(O)c2nc[nH]c(=O)c2c1
reported.metric: pIC50
reported.result: 7.52

###

Each entry below lists one item and its recorded pIC50 value.
Biological target: Rec. human COMT (Homo sapiens, UniProt P21964)
Sequence (P21964 1-271): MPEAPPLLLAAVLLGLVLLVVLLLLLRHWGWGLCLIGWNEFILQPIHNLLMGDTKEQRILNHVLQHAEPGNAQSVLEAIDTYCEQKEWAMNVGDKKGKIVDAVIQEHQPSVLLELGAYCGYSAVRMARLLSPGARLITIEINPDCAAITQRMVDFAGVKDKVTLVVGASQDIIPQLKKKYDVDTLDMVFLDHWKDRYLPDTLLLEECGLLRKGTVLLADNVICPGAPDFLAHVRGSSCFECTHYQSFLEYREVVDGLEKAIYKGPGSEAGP
Test: COMT-Fluorescence Assay
Assay type: biochemical
Settings: COMT-fluorescence assay, rec. human COMT 25 nM, 4-Nitrocatechol-Alexa488 200 nM, SAM 500 nM; read-out: IC50
pIC50: −log10 of the molar value.
reported.metric: pIC50

compound: COCc1cc(CN2CCN(C(C)C)CC2)ccc1-c1cc(O)c2nc[nH]c(=O)c2c1 [Example 107, (2,2,2-trifluoroacetate)]
reported.result: 7.70
--
compound: O=c1[nH]cnc2c(O)cc(-c3ccc(F)cc3)c(-c3ccccc3)c12 [Example 49]
reported.result: 7.70
--
compound: O=C(c1cccnc1)c1cc(O)c2nc[nH]c(=O)c2c1 [Example 74]
reported.result: 6.60
--
compound: O=c1[nH]cnc2c(O)cc(-c3ccccc3COCCC3CCN(CC(F)(F)F)CC3)c(Cl)c12 [Example 120, 2,2,2-trifluoroacetate]
reported.result: 7.05
--
compound: O=c1[nH]cnc2c(O)cc(-c3ccc(F)cc3)c([N+](=O)[O-])c12 [Example 252]
reported.result: 7.52
--
compound: CC(C)Cc1cc(O)c2nc[nH]c(=O)c2c1 [Example 17, 8-Hydroxy-6-isobutylquinazolin-4(3H)-one]
reported.result: 5.96
--
compound: O=c1[nH]cnc2c(O)cc(-c3ccc(-c4ccccn4)s3)cc12 [Example 89]
reported.result: 7.70
--
compound: CN(C)c1cccc(-c2cc(O)c3nc[nH]c(=O)c3c2)c1 [Example 148]
reported.result: 8.00
--
compound: O=c1[nH]cnc2c(O)cc(Cl)cc12 [Example 139, 6-Chloro-8-hydroxyquinazolin-4(3H)-one]
reported.result: 6.54
--
compound: O=c1[nH]cnc2c(O)cc(-c3cncs3)cc12 [Example 90]
reported.result: 7.70
--
compound: O=c1[nH]cnc2c(O)cc(-c3ccccc3COCCC3CCN(CC(F)(F)F)CC3)cc12 [Example 118, 2,2,2-trifluoroacetate]
reported.result: 8.00
--
compound: COC(=O)C(C)c1ccc(-c2ccccc2)c(-c2cc(O)c3nc[nH]c(=O)c3c2)c1 (racemic) [Example 32]
reported.result: 5.70
--
compound: Cc1ncc(-c2cc(O)c3nc[nH]c(=O)c3c2)n1C [Example 87]
reported.result: 6.64
--
compound: O=c1[nH]cnc2c(O)cc(-c3cccc(CN4CCOCC4)c3)cc12 [Example 39]
reported.result: 7.70
--
compound: O=c1[nH]cnc2c(O)cc(CCc3ccccc3)cc12 [Example 16]
reported.result: 6.25
--
compound: O=c1[nH]cnc2c(O)cc(-c3ccc(F)cc3)c(F)c12 [Example 195]
reported.result: 8.00
--
compound: O=c1[nH]cnc2c(O)cc(-c3ccccc3Cc3ccccc3)cc12 [Example 98]
reported.result: 7.40
--
compound: O=c1[nH]cnc2c(O)c(F)c(-c3ccccc3)c(F)c12 [Example 38]
reported.result: 7.52
--
compound: COc1ccc(-c2cc(O)c3nc[nH]c(=O)c3c2)cn1 [Example 163]
reported.result: 7.40
--
compound: O=C(c1cc(O)c2nc[nH]c(=O)c2c1)N1CCOCC1 [Example 3]
reported.result: 5.38
--
compound: O=c1[nH]cnc2c(O)c(F)cc(-c3ccc(F)cc3)c12 [Example 124]
reported.result: 6.70
--
compound: N#Cc1ccc(-c2c(-c3ccc(F)cc3)cc(O)c3nc[nH]c(=O)c23)cc1 [Example 64]
reported.result: 8.00
--
compound: O=c1[nH]cnc2c(O)cc(I)cc12 [Example 137, 8-Hydroxy-6-iodo-3H-quinazolin-4-one]
reported.result: 7.22
--
compound: CCc1ccccc1-c1cc(O)c2nc[nH]c(=O)c2c1 [Example 217]
reported.result: 7.30
--
compound: CS(=O)(=O)c1cccc(-c2c(-c3ccc(F)cc3)cc(O)c3nc[nH]c(=O)c23)c1 [Example 52]
reported.result: 8.00
--
compound: Cc1ccc(-c2c(-c3ccc(F)cc3)cc(O)c3nc[nH]c(=O)c23)cc1 [Example 50]
reported.result: 8.00
--
compound: CCCCOc1ccccc1-c1cc(O)c2nc[nH]c(=O)c2c1 [Example 228]
reported.result: 7.30
--
compound: O=c1[nH]cnc2c(O)cc(Br)c(C(F)(F)F)c12 [Example 41]
reported.result: 6.80
--
compound: Cc1nc(C)c(-c2cc(O)c3nc[nH]c(=O)c3c2)s1 [Example 178]
reported.result: 8.00
--
compound: O=c1[nH]cnc2c(O)cc(-c3cccc4ccccc34)cc12 [Example 170]
reported.result: 7.70
--
compound: CN(C)Cc1cccc(-c2cc(O)c3nc[nH]c(=O)c3c2)c1 [Example 229]
reported.result: 7.27
--
compound: O=C(c1ccccc1)c1ccccc1-c1cc(O)c2nc[nH]c(=O)c2c1 [Example 99]
reported.result: 7.00
--
compound: O=c1[nH]cnc2c(O)cc(Br)c([N+](=O)[O-])c12 [Example 44]
reported.result: 6.96
--
compound: CN(C)S(=O)(=O)c1ccccc1-c1cc(O)c2nc[nH]c(=O)c2c1 [Example 250]
reported.result: 5.94
--
compound: O=c1[nH]cnc2c(O)cc(C(O)c3ccccc3)cc12 (stereo not drawn) [Example 67]
reported.result: 5.13
--
compound: O=c1[nH]cnc2c(O)cc(N3CCOCC3)cc12 [Example 187]
reported.result: 6.15
